Endpoint: binding signal (normalized ELISA). System: ZFP8196 linker TPDRPISTCKP (artificial). Items follow.
outcome-measure: binding signal (normalized ELISA)

In [3]: df
Out[3]:
                            sequence_record                              target_desc                    outcome_measure  reported_value
0  TTAGATAAACTGACAAAAGGCTATC (double strand) [8196 target gap A]  ZFP8196 linker TPDRPISTCKP (artificial)  binding signal (normalized ELISA)            0.11
1  TTAGATAAACTGTCCAAAAGGCTATC (double strand) [8196 target gap TC]  ZFP8196 linker TPDRPISTCKP (artificial)  binding signal (normalized ELISA)            0.03
2  TTAGATAAACTGGCAAAAGGCTATC (double strand) [8196 target gap G]  ZFP8196 linker TPDRPISTCKP (artificial)  binding signal (normalized ELISA)            0.29
3  TTAGATAAACTGTGCAAAAGGCTATC (double strand) [8196 target gap TG]  ZFP8196 linker TPDRPISTCKP (artificial)  binding signal (normalized ELISA)            0.02
4  TTAGATAAACTGCCAAAAGGCTATC (double strand) [8196 target gap C]  ZFP8196 linker TPDRPISTCKP (artificial)  binding signal (normalized ELISA)            0.05
5  TTAGATAAACTGACCAAAAGGCTATC (double strand) [8196 target gap AC]  ZFP8196 linker TPDRPISTCKP (artificial)  binding signal (normalized ELISA)            0.01

---

system: ZFP8196 linker LRQKDERP (artificial)
outcome-measure: binding signal (normalized ELISA)

>>> print(df.to_string())
                            sequence_record  reported_value
0  TTAGATAAACTGTGCAAAAGGCTATC (double strand) [8196 target gap TG]               0
1  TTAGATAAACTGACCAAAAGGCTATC (double strand) [8196 target gap AC]               0
2  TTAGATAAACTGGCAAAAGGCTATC (double strand) [8196 target gap G]            0.04
3  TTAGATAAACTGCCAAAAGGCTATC (double strand) [8196 target gap C]            0.01
4  TTAGATAAACTGTCCAAAAGGCTATC (double strand) [8196 target gap TC]               0
5  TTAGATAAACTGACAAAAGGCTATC (double strand) [8196 target gap A]            0.01

---

system: ZFP7263 linker LRQKDERP (artificial)
Measured binding signal (normalized ELISA) by item
outcome-measure: binding signal (normalized ELISA)

                            sequence_record                           target_desc                    outcome_measure  reported_value
0  TTAGCCACTCTGATGGAAGTGTATC (double strand) [7263 target gap A]  ZFP7263 linker LRQKDERP (artificial)  binding signal (normalized ELISA)            0.03
1  TTAGCCACTCTGCTTGGAAGTGTATC (double strand) [7263 target gap CT]  ZFP7263 linker LRQKDERP (artificial)  binding signal (normalized ELISA)            0.01
2  TTAGCCACTCTGACTGGAAGTGTATC (double strand) [7263 target gap AC]  ZFP7263 linker LRQKDERP (artificial)  binding signal (normalized ELISA)            0.01
3  TTAGCCACTCTGCTGGAAGTGTATC (double strand) [7263 target gap C]  ZFP7263 linker LRQKDERP (artificial)  binding signal (normalized ELISA)            0.02
4  TTAGCCACTCTGATTGGAAGTGTATC (double strand) [7263 target gap AT]  ZFP7263 linker LRQKDERP (artificial)  binding signal (normalized ELISA)            0.01
5  TTAGCCACTCTGGTGGAAGTGTATC (double strand) [7263 target gap G]  ZFP7263 linker LRQKDERP (artificial)  binding signal (normalized ELISA)            0.18
